Test: Pharmacokinetics in rat plasma after oral administration of SF-CS and SP-CS extracts (HPLC-MS/MS)
Format: in vivo, Male Sprague-Dawley rats
Conditions: rat plasma, oral SP-CS extract
measurement_name: AUC(0–24h) (ng·h/mL)

P = O=c1c(O[C@@H]2O[C@H](CO)[C@@H](O)[C@H](O)[C@H]2O)c(-c2ccc(O)cc2)oc2cc(O)cc(O)c12 [Astragalin, astragalin]
Q = O=C(O)/C=C/c1ccc(O)cc1 [P-coumaric acid, p-coumaric acid]
Q: Please choose the item with the lower AUC(0–24h) value from this pair: P and Q Field: selected label. Fill in the label of the entry you choose.
A: P

* * *

Experiment: Pharmacokinetics in rat plasma after oral administration of SF-CS and SP-CS extracts (HPLC-MS/MS)
Type: in vivo, Male Sprague-Dawley rats
Settings: male, Sprague-Dawley; rat plasma, oral SP-CS extract (B) 2.2 g kg^-1, n = 10, mean ± SD; read-out: MRT0–24h
measurement_name: MRT last (h)

O=C(/C=C/c1ccc(O)c(O)c1)O[C@@H]1C[C@](O)(C(=O)O)C[C@@H](O)[C@H]1O = 5.06
O=c1c(O[C@@H]2O[C@H](CO)[C@H](O)[C@H](O)[C@H]2O)c(-c2ccc(O)c(O)c2)oc2cc(O)cc(O)c12 = 8.66

A = O=C(/C=C/c1ccc(O)c(O)c1)O[C@@H]1C[C@@](O)(C(=O)O)C[C@@H](O)[C@@H]1O
B = O=c1c(O[C@@H]2O[C@H](CO)[C@@H](O)[C@H](O)[C@H]2O)c(-c2ccc(O)cc2)oc2cc(O)cc(O)c12
C = O=C(O)/C=C/c1ccc(O)cc1
Q: Rank entries according to their MRT last, from the largest number down. Put the labels in the requested order and list them out.
A: A, C, B
(A: 8.18 h, C: 5.68 h, B: 2.13 h)

Data origin, for the record: paper PMC6651454
